Kd reference
# Target Under Test: HLA-A2 molecule, product of the HLA-A*0201 gene (Homo sapiens, UniProt P04439, D140Y/D185E/D98H/E176V/E277Q/G131W/G231S/I119V/I121R/I166T/I218V/L300P/L318F/N151K/N90K/P208A/P217A/Q86G/Q94H/R138H/R169H/T345S)
# Experiment Notes: Experiment of binding peptide to HLA-A2 molecule (JY cells, flow cytometer)
Ends that are not written are not given here.
Numeric answer only, unit µM assumed.

Some sequences with known Kd results, for comparison:
GVFRGIQDV [compound 51]; 1.41
NLGATLKGV [compound 31]; 8.17
ILCGAQYRI [compound 40]; 7.51
ALLLRTPYS [compound 38]; 4.69
NMTKLQLAL [compound 49]; 3.71
QQYSVPPPV [compound 39]; 3.24
NLYQMTSQL [compound 44]; 1.49

// next entry
[Q] Let me know recorded Kd for ALLPAVPSL [compound 33] , thanks.
[A] 0.0143
